Reference source for all entries: ChEMBL document CHEMBL1201862

Test system: COLO 205
Assay: NCI tumour cell line growth inhibition, 48 h
Calls of active or inactive are those of the source. No stated cut-off is given here; in the data, active = GI50 up to about 1.1 µM and inactive = higher.
Attribute measured: GI50

Observe how each entry below is paired with its result.
Compound	Result value
NNc1nncc2[nH]nnc12	> 100 µM (inactive)
CC(=O)C(C(=O)C(=O)Nc1cc(Cl)c(Cl)cc1Cl)c1csc(N)n1 (stereo not given)	> 100 µM (inactive)
O=[N+]([O-])c1ccc(/N=N\c2c(O)ccc3ccccc23)c([N+](=O)[O-])c1	> 100 µM (inactive)
COc1ccc(CCN2CCC(C#N)(c3ccc(OC)c(OC)c3)CC2)cc1OC	> 100 µM (inactive)
O=C(O)c1cc2ccccc2c(S(=O)(=O)O)c1O	> 100 µM (inactive)

IN: Provide value of GI50 for this record tested with COLO 205: O=C(NCCNCCCNC(=O)c1cc(-c2ccccc2)nc2ccccc12)c1cccc(O)c1O
OUT: 3.18 µM (inactive)

IN: GI50 of C=C1C(=O)[C@]23[C@H](O)[C@H]1CC[C@H]2[C@@]12CO[C@@]3(O)C[C@@H]1C(C)(C)CC[C@@H]2O on COLO 205?
OUT: 3.98 µM (inactive)

IN: Param readout = GI50; param system = COLO 205; param query = COC(=O)CCC(NC(=S)N/N=C(\C)c1ccc[nH]1)C(=O)OC (stereo not given) ; response: value
OUT: > 100 µM (inactive)

IN: Quick check: GI50 on COLO 205, item O=C(Nc1nc2ccc([N+](=O)[O-])cc2s1)C(=O)C(C(=O)c1ccccc1F)C1OC(=O)c2ccccc21 (stereo not given) ?
OUT: 21.3 µM (inactive)

IN: Can you look up GI50 on COLO 205 for COc1ccc(/C=C2\CCC(CNc3ccc(S(N)(=O)=O)cc3)C2=O)cc1 (stereo not given) ?
OUT: 16.6 µM (inactive)

IN: Look up GI50 with COLO 205 for this compound: O=c1nc2occc2cn1C1CC(O)C(CO)O1 (stereo not given)
OUT: > 100 µM (inactive)

IN: // lookup GI50 | system=COLO 205 | key= O=[N+]([O-])c1cc(Cl)cc2cc(Cl)cnc12
OUT: > 100 µM (inactive)

IN: Give COLO 205 GI50 for Cc1ccc(C)c(N2C(=O)C(=O)C(c3nc4ccccc4s3)C(=O)C2=O)c1
OUT: > 100 µM (inactive)

IN: Short answer please: GI50, COLO 205, entry CSC1=C(C)C(/C=N/Nc2ccc([N+](=O)[O-])cc2)=C(C)N(c2ccccc2)S1(=O)=O
OUT: 48.2 µM (inactive)

IN: Can you look up GI50 on COLO 205 for COc1cccc2cc(C(=O)Nc3ccccc3)c(=N)oc12 ?
OUT: > 100 µM (inactive)

IN: What reported GI50 corresponds to COc1ccc([C@@H]2OC(=O)C3C2C(=O)O[C@H]3c2ccc(OC)c(OC)c2)cc1OC (stereo not given in full) on COLO 205?
OUT: > 100 µM (inactive)

IN: API: value(readout= GI50, system= COLO 205, query= O=C1c2ccccc2-c2cc([N+](=O)[O-])c([N+](=O)[O-])cc21 )
OUT: 2.11 µM (inactive)

IN: Form: Entry = COC1=C(Br)[C@H](O)[C@@]2(C=C1Br)CC(C(=O)NCCCCCNC(=N)N)=NO2 | System = COLO 205 | GI50 = ____
OUT: > 10 µM (inactive)

IN: # returns recorded GI50 (system: COLO 205) for COc1ccc(OC)c2sc(N3C(=O)/C(=C/c4ccccc4S)N=C3c3ccccc3)nc12
OUT: 32.8 µM (inactive)

IN: Please state recorded GI50 (tested on COLO 205) of NCCCNCCSSCc1ccccc1CSSCCNCCCN
OUT: 39.4 µM (inactive)

IN: # get_value(readout= GI50, system= COLO 205) for CC(C)[C@H](NC(=O)OCc1ccccc1)C(=O)N[C@H](/C=C/C(=O)OC(C)(C)C)CO
OUT: 80.4 µM (inactive)

IN: Given the entry O=C(Nc1ccc2ncccc2c1)Nc1ccc2ncccc2c1 , what GI50 was observed with COLO 205?
OUT: > 100 µM (inactive)

IN: API: value(readout=GI50, system=COLO 205) for record CC(=O)c1sc2c(c1OC(=O)c1cccs1)c(=O)n(-c1ccccc1)c(=S)n2-c1ccccc1
OUT: 18 µM (inactive)

IN: Form entry - test system: COLO 205; read-out: GI50; compound: C/C(=C\[C@H]1C[C@@H]([C@@H]2CC[C@]34C[C@]23C=C[C@@H]2[C@@]3(C)CC=C5C[C@@H](c6ccccc6)OC[C@]5(C)[C@@H]3C[C@@H](O)[C@]24C)C(=O)O1)CO
OUT: 2.01 µM (inactive)

IN: Enter reported GI50 observed with COLO 205 for COc1ccc2c(cnc3c4cc(OC)c(OC)cc4ccc23)c1
OUT: > 100 µM (inactive)

IN: Identify the measured GI50 of Oc1c(Br)cc(Br)cc1CN(Cc1cc(Br)cc(Br)c1O)C1CCCCC1 for COLO 205.
OUT: 14.7 µM (inactive)

IN: COLO 205 / GI50 / CCOC(=O)C(NC(=O)Nc1ccccc1)(Nc1cccc(Cl)c1)C(F)(F)F (stereo not given) : value?
OUT: > 100 µM (inactive)
